assay: differential killing of epithelial or mesenchymal cells, primary screen, imaging, PC-3E GFP, TEM4-18 mCherry, co-culture (AID 1345086); conditions: imaging cell counts, at 1 µM, actives lie on both sides, counts scaled to control wells, 1 = unselective;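 also: normalised mesenchymal count divided by normalised epithelial count so high means epithelial killing; cells exposed to compound for 72 h before imaging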
Field 'label' (enum: Y / N). Set to Y when red/green cell ratio (normalised) is strictly under 1; else N.

Known results for molecules:
Molecule	Group
OC[C@H]1O[C@@](CO)(O[C@@H]2O[C@H](CO)[C@@H](O)[C@H](O)[C@H]2O)[C@@H](O[C@@H]2O[C@H](CO)[C@@H](O)[C@H](O)[C@H]2O)[C@@H]1O	Y
CCCc1cc(OC)c2c(c1)OCO2	N
NCc1ccccc1CC(=O)NC1C(=O)N2C(C(=O)O)=C(CSc3nnnn3CC(=O)O)CSC12 (stereo not drawn)	Y
O=C(O)CCC(=O)OC1C(CO)O[C@H](Sc2ccccc2)[C@H]2NC(=O)O[C@@H]12 (stereo partly drawn)	N
CN(Cc1cnc2nc(N)nc(N)c2n1)c1ccc(C(=O)NC(CCC(=O)O)C(=O)O)cc1 (stereo not drawn)	Y

Now take the following molecule into account.
Threshold test, red/green cell ratio (normalised) < 1: CO[C@H]1/C=C/O[C@@]2(C)Oc3c(C)c(O)c4c(O)c(c(C=NN5CCN(C)CC5)c(O)c4c3C2=O)NC(=O)/C(C)=C\C=C\C(C)[C@H](O)[C@@H](C)[C@@H](O)[C@@H](C)[C@@H](OC(C)=O)[C@@H]1C (stereo partly drawn) N

* * *

tested on: F380Y/beta2Delta; experiment: modulators of BK channel variants, profiling panel, selectivity assay, cell-based, U2OS BacMam, thallium flux, beta subunits (AID 1259406); conditions: at 30 µM;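 also: initial slope of Thallos dye fluorescence rise after thallium is added; log ratio against the mean of 0.3% DMSO vehicle wells on the same plate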
The source made the active and inactive calls.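 The calls were made as follows: active = thallium flux through the channel raised or lowered by more than 3 SD from vehicle-only wells, actives on both sides; inactive = the rest.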
Allowed answers: 1.0 for active, 0.0 for inactive

The following compounds have reported results that may help.
> print(dat)
                                   compound  group
1               Oc1c(Cl)c(Cl)c(Cl)c2ccccc12    1.0
2     O=C(CN1c2ccccc2Sc2ccccc21)NN=Cc1ccco1    0.0
3  NC(C=Cc1cc(C(F)(F)F)cc(C(F)(F)F)c1)=NOC(=O)c1c(F)cccc1F    0.0
4  CN(C)S(=O)(=O)c1ccc2c(c1)/C(=C\CCN1CCNCC1)c1ccccc1S2    0.0
5   O=C(O)CSCC(=O)Nc1ccc(-c2nc3ccccc3s2)cc1    0.0

What was the test verdict on `CCCCCCCCCCCCSC(=S)Nc1ccc(Br)c(C)c1` ? 0.0

State the result this test recorded for CN1C2CCC1CC(OC(c1ccccc1)c1ccccc1)C2 (configuration not stated) . 1.0

Record lookup: outcome of this test for `Cc1ccc(NC(=S)NCCO)cc1` ? 0.0

Recorded call for `O=c1[nH]c2ccccc2c2ccccc12` ? 0.0

Look up the recorded call for `COc1ccc(CCN=Cc2ccccn2)cc1OC` in this test. 0.0

Could you please tell me the result logged for `COc1cc(C[C@@H](CO)[C@H](CO)Cc2ccc(O)c(OC)c2)ccc1O` in this assay? 0.0

Which outcome was assigned to O=C(NC1CCSC1)c1ccccc1NS(=O)(=O)c1ccccc1 (configuration not stated) in this test? 0.0

* * *

# reported inhibition; entries follow
test system: Hepatitis C virus NS3 helicase; experiment: HCV NS3 helicase inhibitors, primary screen, biochemical, fluorescence polarization, NIH Clinical Collection (AID 743270); conditions: NS3 helicase binding to Cy5-dT15 DNA, active compounds read high, concentration not given here
Hi! Could you send only the number? It should be in %, unit omitted.

Example entries begin here.
> print(dat)
                                   compound  reported.metric  endpoint.value
1  CC(=O)C1(O)CCC2C3CC(C)C4=CC(=O)C=CC4(C)C3(F)C(O)CC21C (stereo not given)       inhibition           -0.45
2  CC(C)c1ccc2c(c1)c(SC(C)(C)C)c(CC(C)(C)C(=O)O)n2Cc1ccc(Cl)cc1       inhibition            7.52
3  CC(=O)OCC(=O)C12OC3(CCCC3)OC1CC1C3CCC4=CC(=O)C=CC4(C)C3(F)C(O)CC12C (stereo not given)       inhibition              -5
4  NC(=O)c1ncn(C2OC(CO)C(O)C2O)n1 (stereo not given)       inhibition            1.36
5         CN1CCN2c3ncccc3Cc3ccccc3[C@@H]2C1       inhibition           -1.36

I have this compound here, `COc1cc(C[C@@H](CO)[C@H](CO)Cc2ccc(O)c(OC)c2)ccc1O` , and I need its recorded inhibition. -1.09

GET /values?readout=inhibition&item= CCC(C)n1ncn(-c2ccc(N3CCN(c4ccc(OCC5COC(Cn6cncn6)(c6ccc(Cl)cc6Cl)O5)cc4)CC3)cc2)c1=O (stereo not given) 2.77

Form field: reported inhibition of `CCOC(=O)[C@@H](CCc1ccccc1)N[C@@H](C)C(=O)N1CCC[C@H]1C(=O)O` -10.4

Tell me the measured inhibition of `CN1[C@@H](CC(=O)c2ccccc2)CCC[C@H]1C[C@H](O)c1ccccc1` , please. 0.4

May I ask what inhibition has been recorded for CC(C(O)c1ccc(O)cc1)N1CCC(Cc2ccccc2)CC1 (stereo not given) ? -6.73

* * *

experiment: HepG2 cytotoxicity, primary screen, cytotoxicity control for P. falciparum antimalarial project, cell-based, ATP luminescence (AID 2303); conditions: HepG2 viability, 24-48 h, at 10 µM, active compounds read high;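 also: 0% = DMSO wells and 100% = digitonin-killed cells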
Each record is given yes if its reported inhibition is strictly below 20%. Records at or above 20% are given no.

Here's what some known entries look like.
> print(dat)
                                   compound  group
1  Cc1ccc(NC(=O)c2cccc(CN3CCCN(CC4CCCCC4)CC3)c2)cc1F     no
2  CC1CCc2sc(-c3nnc(SC(C)C(=O)N4CCCC4)o3)cc2C1 (stereo not given)    yes
3   Brc1ccsc1-c1nc(NC2CCN(Cc3ccccc3)CC2)no1    yes

# strict comparison: is reported inhibition < 20%? input = `CC1(C)N=C(N)N=C(N)N1c1ccc(Oc2ccccc2)cc1` yes

In plain terms, does `COc1ccc(CNCC(C)(C)c2nc(-c3ccc(Cl)c(O)c3)c(-c3ccncc3)[nH]2)cc1` come in under 20% for inhibition? no

Does Cc1nn(C)cc1C(C)Nc1nncc(-c2ccc(C(F)(F)F)cc2)n1 (stereo not given) have inhibition strictly under 20%? yes

hey, is inhibition for `CCN1CCC(N(Cc2ccc(-c3ccc(C(F)(F)F)cc3)cc2)C(=O)Cn2c(SCc3ccc(F)cc3)nc(=O)c3c2CCC3)CC1` lower than 20% or not? no

Please let me know if `Cc1cccc(Nc2nc(NCCCCN)nc3cc[nH]c(=O)c23)c1` shows inhibition below 20%. no

Please state whether inhibition is below 20% for `CN(C)Cc1ccc(-c2ccc3c(Nc4ccc(Cl)cc4F)ccnc3c2)o1` yes

Please state whether inhibition is below 20% for `CCCCOC(=O)[C@H](CCC)NC(=O)c1ccc(NS(=O)(=O)c2ccc3nc(N)[nH]c(=O)c3c2)cc1` no

I wonder whether `COc1ccc2c(NN=Cc3ccccc3F)ccnc2c1` has inhibition below 20%. Can you tell? yes

Given `COc1ccc(O)c(-c2sc(N=C(N)N)nc2-c2ccccc2)c1` , is recorded inhibition strictly lower than 20%? yes

In the record for `N=C(N)c1nc2ccccc2s1` , is inhibition less than 20%? yes

Dear colleague, could you confirm whether inhibition of `Cc1ccc(O)cc1Nc1ccnc2cc(-c3cccc(CNCCS(C)(=O)=O)c3)ccc12` falls below 20%? Thanks. yes

Lab log: compare recorded inhibition with 20%; is it strictly lower for `COc1ccc(CN2CCC(C(=O)Nc3cccc(-c4cccc(Cl)c4)c3)CC2)cc1O` ? no

Hi there! Is inhibition for `Cc1oc(-c2ccc(Cl)cc2)cc1C(=O)NCCC1CCN(CCCCCNC(=O)/C=C/c2ccc(Cl)c(Cl)c2)CC1` below 20%, do you know? no

Dear colleague, could you confirm whether inhibition of `Fc1ccc2nc(-c3cccc(-c4ccc(CNCc5cnn(-c6ccccc6)n5)cc4)c3)[nH]c2c1` falls below 20%? Thanks. yes

Consider COc1cc(C(=O)N2CCOC(CCN3CCC[C@H]3C(=O)Nc3ccccc3)(c3ccc(Cl)c(Cl)c3)C2)cc(OC)c1OC (stereo not given in full) . Does its inhibition lie strictly below 20%? yes

In plain terms, does `CCOC(=O)NCC(=O)Nc1cccc(-c2cccc(-c3nc4ccc(C(F)(F)F)cc4[nH]3)c2)c1` come in under 20% for inhibition? no

* * *

assay: antimalarial activity against Dd2 strain (AID 2302);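 also: 0% = DMSO untreated growth and 100% = chloroquine plus artemisinin killed control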; details: P. falciparum Dd2 in RBCs, LDH growth readout, 72 h; at 2 µM; active compounds read high
Item-by-item account of growth inhibition
Record the value in %, omitting the unit from your answer.

Consider the reported growth inhibition for these molecules:
> print(dat)
                                   molecule  endpoint.value
1  COc1ccc(CNC2CCN(C)CC2)cc1-c1ccc(S(=O)(=O)NCCN2CCCC2)s1               1
2  O=C(Nc1cc(C(F)(F)F)cc(C(F)(F)F)c1)Nc1ccc(Cl)c(Cl)c1             100
3                Nc1nccc2ccc(Oc3ccncc3)cc12              81
4  Cc1nn(-c2ccccc2)c2c1C(c1ccc(C(C)C)cc1)N1C(=N2)N(Cc2ccccc2)c2ccccc21 (stereo not given)              37

Could you now consider this next molecule?
Return reported growth inhibition; argument: `CN1CCC=C(C(=O)NCC(C)(C)c2nc(-c3ccc(Cl)c(O)c3)c(-c3ccncc3)[nH]2)C1` 96

Where do these numbers come from? They come from PubChem BioAssay.
